Source of measurements: ChEMBL document CHEMBL4196137

Quick list: MIC per entry.
system: Staphylococcus aureus; assay: Antimicrobial activity against methicillin-resistant Staphylococcus aureus isolate 699 by two-fold serial dilution method; assay type: functional
Express the result in µg/mL but write the number alone.

Before answering, review these 3 worked examples.
MOLECULE	UNITS	MIC
C[C@H]1CC/C(O)=C2/C(=O)O[C@]34C[C@H](C)[C@]5(C)O[C@]23[C@H](C1=O)[C@@H](S[C@H]1[C@H]2[C@H](O)[C@@]3(C)O[C@@]67/C(=C(/O)CC[C@H](C)C(=O)[C@H]16)C(=O)O[C@@]27C[C@@H]3C)[C@H]4[C@@H]5O	µg/mL	16
CN[C@H](CC(C)C)C(=O)N[C@H]1C(=O)N[C@@H](CC(N)=O)C(=O)N[C@H]2C(=O)N[C@H]3C(=O)N[C@H](C(=O)N[C@H](C(=O)O)c4cc(O)cc(O)c4-c4cc3ccc4O)[C@H](O)c3ccc(c(Cl)c3)Oc3cc2cc(c3O[C@@H]2O[C@H](CO)[C@@H](O)[C@H](O)[C@H]2O[C@H]2C[C@](C)(N)[C@H](O)[C@H](C)O2)Oc2ccc(cc2Cl)[C@H]1O [VANCOMYCIN]	µg/mL	0.125
C[C@H]1CCC(=O)C2=C3O[C@@]4(C)[C@@H](C)C[C@]3(OC2=O)[C@@H]([C@H](S[C@H]2[C@H]3[C@H](O)[C@@]5(C)O[C@@]67/C(=C(/O)CC[C@H](C)C(=O)[C@H]26)C(=O)O[C@@]37C[C@@H]5C)CC1=O)[C@@H]4O	µg/mL	16

# next molecule below
# MIC lookup, item CC1(C)S[C@@H]2[C@H](NC(=O)[C@H](N)c3ccccc3)C(=O)N2[C@H]1C(=O)O [AMPICILLIN]
4
